pKi: −log10 of the molar value.
Here is a set of molecules with reported pKi for UniProtKB Q9Y2D0, compiled from the literature.
Label Met when pKi is at or above 6; anything below gets Not met.

{"molecule_smiles": "O=C1C=CC[C@H](C[C@@H](O)CCc2cc(Br)c(O)cc2Br)O1", "category_label": "Not met"}
{"molecule_smiles": "Cc1cn([C@H]2C[C@@H](n3cc(CNC(=O)Nc4cccc(S(N)(=O)=O)c4)nn3)[C@@H](CO)O2)c(=O)[nH]c1=O", "category_label": "Met"}
{"molecule_smiles": "NNc1ccccc1S(N)(=O)=O", "category_label": "Not met"}
{"molecule_smiles": "NCCNc1cccc2ccccc12", "category_label": "Met"}
{"molecule_smiles": "CC(=O)OC[C@H]1O[C@@H]([Se]c2ccc(NC(=O)c3ccc(S(N)(=O)=O)cc3)cc2)[C@H](OC(C)=O)[C@@H](OC(C)=O)[C@@H]1OC(C)=O", "category_label": "Met"}
{"molecule_smiles": "O=C(NCCNCCNCCNC(=O)C(F)(F)F)C(F)(F)F", "category_label": "Not met"}
{"molecule_smiles": "Nc1ccc(S(=O)(=O)NCc2ccc(S(N)(=O)=O)cc2)cc1", "category_label": "Met"}
{"molecule_smiles": "Cc1cn([C@H]2C[C@@H](n3cc(COC(=O)c4ccc(S(N)(=O)=O)cc4)nn3)[C@@H](CO)O2)c(=O)[nH]c1=O", "category_label": "Met"}
{"molecule_smiles": "NS(=O)(=O)c1ccc(CCNC(=O)CN2C(=O)NC3(CCCC3)C2=O)cc1", "category_label": "Not met"}
{"molecule_smiles": "CC1(C)C2CC[C@@]1(CS(=O)(=O)NCc1ccc(S(N)(=O)=O)cc1)C(=O)C2", "category_label": "Met"}
{"molecule_smiles": "NS(=O)(=O)c1ccc(NC(=O)Cc2cccs2)cc1", "category_label": "Met"}
{"molecule_smiles": "CC1(C)OB(c2ccc(NS(N)(=O)=O)cc2)OC1(C)C", "category_label": "Met"}
{"molecule_smiles": "CC1(C)O[C@@H]2[C@@H](CO[C@@]3(CNS(N)(=O)=O)OC(C)(C)O[C@@H]23)O1", "category_label": "Met"}
{"molecule_smiles": "NS(=O)(=O)c1ccc2[nH]c(-c3cscn3)nc2c1", "category_label": "Met"}
{"molecule_smiles": "Oc1ccc(/C=C/c2cc(O)cc(O)c2)cc1", "category_label": "Not met"}
{"molecule_smiles": "Nc1ccc(S(N)(=O)=O)cc1F", "category_label": "Not met"}
{"molecule_smiles": "Cn1nc(S(N)(=O)=O)sc1=N", "category_label": "Not met"}
{"molecule_smiles": "COc1ccc(-c2cn(-c3ccc(S(N)(=O)=O)cc3)nn2)cc1", "category_label": "Met"}
{"molecule_smiles": "O=C(/C=C/c1ccc(O)cc1)C[C@@H]1O[C@H](CO)[C@@H](O)[C@H](O)[C@H]1O", "category_label": "Not met"}
{"molecule_smiles": "CC(=O)OC[C@H]1O[C@@H]([Se]c2ccc(S(N)(=O)=O)c(N)c2)[C@H](OC(C)=O)[C@@H](OC(C)=O)[C@@H]1OC(C)=O", "category_label": "Not met"}
{"molecule_smiles": "Nc1nnc(S(N)(=O)=O)s1", "category_label": "Not met"}
{"molecule_smiles": "NCCNCCCNCCN", "category_label": "Not met"}
{"molecule_smiles": "CC(=O)OC[C@H]1O[C@@H]([Se]c2ccc(S(N)(=O)=O)c(N)c2)[C@H](OC(C)=O)[C@@H](OC(C)=O)[C@H]1OC(C)=O", "category_label": "Met"}
{"molecule_smiles": "CCOC(=O)c1cc2cc(CO)ccc2oc1=O", "category_label": "Not met"}
{"molecule_smiles": "O=c1oc2c(O)c(O)cc3c(=O)oc4c(O)c(O)cc1c4c23", "category_label": "Not met"}
{"molecule_smiles": "NS(=O)(=O)c1ccc(CCNC(=O)Cc2cccs2)cc1", "category_label": "Met"}
{"molecule_smiles": "O=C(O)c1cc2ccccc2oc1=O", "category_label": "Not met"}
{"molecule_smiles": "Cc1cn(-c2cc(NC(=O)c3ccc(C)c(Nc4nccc(-c5cccnc5)n4)c3)cc(C(F)(F)F)c2)cn1", "category_label": "Not met"}
{"molecule_smiles": "COc1cc(/C=C/C(=O)CC(=O)/C=C/c2ccc(O)c(OC)c2)ccc1O", "category_label": "Not met"}
{"molecule_smiles": "Cc1ccc(-c2cn(-c3ccc(S(N)(=O)=O)cc3)nn2)cc1", "category_label": "Met"}
{"molecule_smiles": "NS(=O)(=O)c1ccc(S(=O)(=O)Nc2cccc3c(Cl)c[nH]c23)cc1", "category_label": "Met"}
{"molecule_smiles": "CC(=O)OC[C@H]1O[C@@H]([Se]c2ccc(S(N)(=O)=O)cc2)[C@H](OC(C)=O)[C@@H](OC(C)=O)[C@H]1OC(C)=O", "category_label": "Met"}
{"molecule_smiles": "Nc1ccc(S(N)(=O)=O)cc1Cl", "category_label": "Not met"}
{"molecule_smiles": "NS(=O)(=O)c1ccc(-n2cc(-c3ccc(F)cc3)nn2)cc1", "category_label": "Met"}
{"molecule_smiles": "NS(=O)(=O)c1ccc(CCO)cc1", "category_label": "Not met"}
{"molecule_smiles": "CC(=O)OC[C@H]1O[C@@H]([Se]c2ccc(NC(=S)Nc3ccc(S(N)(=O)=O)cc3)cc2)[C@H](OC(C)=O)[C@@H](OC(C)=O)[C@@H]1OC(C)=O", "category_label": "Met"}
{"molecule_smiles": "NS(=O)(=O)c1nc2ccc(O)cc2s1", "category_label": "Met"}
{"molecule_smiles": "Nc1ccc(S(=O)(=O)NCCc2ccc(S(N)(=O)=O)cc2)cc1", "category_label": "Met"}
{"molecule_smiles": "NS(=O)(=O)c1ccc(-n2cc(-c3ccccc3)nn2)cc1", "category_label": "Met"}

* * *

Hi, quick share: literature Ki data for UniProt Q9Y2D0, several sources combined.
recorded_metric: Ki

{"molecule_smiles": "O=C(NCCNCCCNCCNC(=O)C(F)(F)F)C(F)(F)F", "measured_target": "UniProt Q9Y2D0", "recorded_metric": "Ki", "result": "54 µM"}
{"molecule_smiles": "OB(O)c1ccccc1", "measured_target": "UniProt Q9Y2D0", "recorded_metric": "Ki", "result": "> 50 µM"}
{"molecule_smiles": "Cc1cn([C@H]2C[C@@H](n3cc(COc4ccc5oc(=O)ccc5c4)nn3)[C@@H](CO)O2)c(=O)[nH]c1=O", "measured_target": "UniProt Q9Y2D0", "recorded_metric": "Ki", "result": "0.161 µM"}
{"molecule_smiles": "NC(N)=Nc1nc(CSCCC(N)=NS(N)(=O)=O)cs1", "measured_target": "UniProt Q9Y2D0", "recorded_metric": "Ki", "result": "5.33 µM"}
{"molecule_smiles": "Nc1ccc(S(=O)(=O)Nc2nnc(S(N)(=O)=O)s2)cc1", "measured_target": "UniProt Q9Y2D0", "recorded_metric": "Ki", "result": "0.03 µM"}
{"molecule_smiles": "Nc1ccccc1S(N)(=O)=O", "measured_target": "UniProt Q9Y2D0", "recorded_metric": "Ki", "result": "9.56 µM"}
{"molecule_smiles": "NS(=O)(=O)c1ccc(CNC(=O)Cc2cccs2)cc1", "measured_target": "UniProt Q9Y2D0", "recorded_metric": "Ki", "result": "0.0072 µM"}
{"molecule_smiles": "O=C(NCCCNCCCCNCCCNC(=O)C(F)(F)F)C(F)(F)F", "measured_target": "UniProt Q9Y2D0", "recorded_metric": "Ki", "result": "1.05 µM"}

* * *

pKi: −log10 of the molar value.
Kindly find below pKi information for Carbonic anhydrase 5B, mitochondrial (Homo sapiens) taken from the literature.
recorded_metric: pKi

{"molecule": "NS(=O)(=O)OCCCCCCCCOS(N)(=O)=O", "recorded_metric": "pKi", "number": 5.84}
{"molecule": "Oc1ccc(C=Cc2cc(O)cc(O)c2)cc1 (mixture of isomers)", "recorded_metric": "pKi", "number": 5.49}
{"molecule": "Nc1nccc(Nc2ccc(S(N)(=O)=O)cc2)n1", "recorded_metric": "pKi", "number": 4.99}
{"molecule": "Oc1cc(F)ccc1F", "recorded_metric": "pKi", "number": 4.29}
{"molecule": "Nc1ccc(S(N)(=O)=O)cc1Br", "recorded_metric": "pKi", "number": 5.45}
{"molecule": "CC(C)(C)OC(=O)N(CCCCN(CCCNC(=O)C(F)(F)F)C(=O)OC(C)(C)C)CCCNC(=O)C(F)(F)F", "recorded_metric": "pKi", "number": 3.99}
{"molecule": "CCOC(=O)c1cc2ccc(OC)cc2oc1=O", "recorded_metric": "pKi", "number": 5.10}
{"molecule": "NCCCCCN", "recorded_metric": "pKi", "number": 6.27}
{"molecule": "CC(=O)OC[C@H]1O[C@@H]([Se]c2ccc(NC(=O)c3ccc(Cl)c(S(N)(=O)=O)c3)cc2)[C@H](OC(C)=O)[C@@H](OC(C)=O)[C@@H]1OC(C)=O", "recorded_metric": "pKi", "number": 7.39}
{"molecule": "Nc1cc(Cl)c(S(N)(=O)=O)cc1S(N)(=O)=O", "recorded_metric": "pKi", "number": 5.21}
{"molecule": "NS(=O)(=O)c1ccc(NC(=O)Cc2ccccc2)cc1", "recorded_metric": "pKi", "number": 8.10}
